Target Desc: rat CB1 receptor (Rattus norvegicus, UniProt P20272)
Construct: contains an open reading frame of 1419 base pairs which corresponds to a protein of 473 amino acids
Sequence (P20272 whole entry): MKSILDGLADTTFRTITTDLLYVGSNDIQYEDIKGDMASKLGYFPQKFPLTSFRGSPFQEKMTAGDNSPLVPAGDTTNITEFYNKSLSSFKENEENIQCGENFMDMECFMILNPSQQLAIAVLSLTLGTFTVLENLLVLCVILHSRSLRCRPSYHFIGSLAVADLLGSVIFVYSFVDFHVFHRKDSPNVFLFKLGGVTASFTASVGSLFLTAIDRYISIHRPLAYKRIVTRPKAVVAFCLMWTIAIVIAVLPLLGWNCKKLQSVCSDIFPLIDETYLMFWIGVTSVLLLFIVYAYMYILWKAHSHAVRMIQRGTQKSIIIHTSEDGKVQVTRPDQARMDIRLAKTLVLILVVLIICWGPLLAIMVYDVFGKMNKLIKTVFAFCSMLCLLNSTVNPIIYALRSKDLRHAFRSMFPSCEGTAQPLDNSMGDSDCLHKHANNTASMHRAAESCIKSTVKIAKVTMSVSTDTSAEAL
Assay Overview: CB1 luciferase reporter gene test
Condition: CHOluc9 cells stably transfected with rat CB1, forskolin-stimulated luciferase; read-out: IC50 (nmol/l), activity in the rat CB1 receptor luciferase receptor gene test
Parameter: IC50 (nmol/L)
Answers are plain numbers, in nmol/L.

## Task Give IC50 for the following compound: O=S(=O)(CCCC(F)(F)F)Oc1cccc(Oc2cccc3cc(CO)oc23)c1
## Result 0.55
